Below: a set of entries, each annotated with reported GI50.
System: Hs-578T
Assay: NCI tumour cell line growth inhibition, 48 h
Activity calls are given as the source filed them. No stated cut-off is given here; in the data, active = GI50 up to about 1.1 µM and inactive = higher.

Please review the entries below; each comes with its answer.
compound.string: O=C(NO)c1ccc(OCc2ccccc2)cc1
experimental.readout: GI50
result: 65.3 µM (inactive)
//
compound.string: CCCc1cn2c(/C=N/NC(=N)N)c(-c3cc([N+](=O)[O-])c(Cl)cc3Cl)nc2s1
experimental.readout: GI50
result: 1.85 µM (inactive)

Ask | Item `CO[C@H]1C[C@](C)(O)Cc2cc3c(c(O)c21)C(=O)c1c(O)cc2c(c1C3=O)O[C@@H]1O[C@@]2(C)[C@H](O)[C@@H](N(C)C)[C@@H]1O` has what recorded GI50?
Reply | 5.25 µM (inactive)

Ask | Check `[O-][n+]1ccccc1Sc1nc(Sc2cccc[n+]2[O-])nc(Sc2cccc[n+]2[O-])n1` too.
Reply | 2.08 µM (inactive)

====

System: SNB-78
Test: NCI tumour cell line growth inhibition, 48 h
The source made the active and inactive calls. Rule as the data show it: active = GI50 up to about 1.1 µM and inactive = higher.
In this section, each of the molecules is paired with its reported GI50.

molecule: COc1ccc(/C=C\c2cc(OC)c(OC(C)=O)c(OC)c2)cc1
assay.system: SNB-78
GI50: 25.5 µM (inactive)
//
molecule: Cc1cc(NS(=O)(=O)c2ccc(NC(=O)c3cccc4c(N)c5ccccc5nc34)cc2)no1
assay.system: SNB-78
GI50: 27.5 µM (inactive)
//
molecule: C[C@]12CC/C(=N\OC(=O)Nc3ccccc3)C=C1CC[C@@H]1C2CC[C@@]2(C)C1CC[C@@H]2OC(=O)Nc1ccccc1 (stereo partly specified)
assay.system: SNB-78
GI50: > 100 µM (inactive)
//
molecule: CC#C[P+](c1ccccc1)(c1ccccc1)c1ccccc1
assay.system: SNB-78
GI50: 4.33 µM (inactive)
//
molecule: COC(=O)C1=C(O)c2cc(OC)c(OC)cc2C(c2ccc(OC)c(OC)c2)C1 (stereo unspecified)
assay.system: SNB-78
GI50: > 100 µM (inactive)

Ask | // returns reported GI50 for input BrC1=CC=C2NC=CC3=CC=NC1C32 (stereo unspecified)
Reply | 29.6 µM (inactive)

Ask | Next: `Cc1cccc(C)c1NC(=O)C(=O)Nn1c(NN)nc2ccccc2c1=O`
Reply | > 100 µM (inactive)

Ask | Similarly, `ClCc1nnc2n1-c1ccc(Cl)cc1SC2` ?
Reply | 5.4 µM (inactive)

Ask | Same thing, different molecule: O/N=C1/C(=C/c2ccccc2)CCCC1C(NO)c1ccccc1 (stereo unspecified)
Reply | 50.6 µM (inactive)

Ask | Proceed to C#CCN(N=O)C(=O)NCCCCC(NC(=O)OCc1ccccc1)C(=O)OCc1ccccc1 (stereo unspecified)
Reply | 46.2 µM (inactive)

Ask | Also check `Cc1cccc(C(C)C)c1NC(=O)C(=O)CC(=O)c1c(C)[n+]([O-])c2ccccc2[n+]1[O-]`
Reply | 49 µM (inactive)

====

Tested on: NCI-H23
Assay: NCI tumour cell line growth inhibition, 48 h
The source made the active and inactive calls. No stated cut-off is given here; in the data, active = GI50 up to about 1.1 µM and inactive = higher.
experimental.readout: GI50

compound: NS(=O)(=O)c1ccc(NC(=O)N/N=C/c2ccccc2O)cc1
assay.system: NCI-H23
GI50: 80.7 µM (inactive)
//
compound: CCSC1(SCC)CCN(/C=N/C(C)(C)C)C1
assay.system: NCI-H23
GI50: > 100 µM (inactive)
//
compound: COC(=O)C12Oc3ccc(-c4ccc5c(c4O)C(=O)C4=CCC(C)C(O)C4(C(=O)OC)O5)c(O)c3C(=O)C1=CCC(C)C2O (stereo not drawn)
assay.system: NCI-H23
GI50: 1.37 µM (inactive)
//
compound: Oc1c2cc(Br)cc1CCc1cc(Br)cc(c1O)CC2
assay.system: NCI-H23
GI50: 28.6 µM (inactive)
//
compound: O=C(Nc1ccccc1C(=O)NC(=O)c1ccccc1NC(=O)c1ccccc1)c1ccccc1
assay.system: NCI-H23
GI50: 4.57 µM (inactive)

Switching to the query record.
Ask | Recall the recorded GI50 for `CCn1c2c(n(CC)c1=S)-c1c(n(CC)c(=S)n1CC)SSSS2` with NCI-H23 and state it.
Reply | 8.75 µM (inactive)

====

Tested on: HCC 2998
Test: NCI tumour cell line growth inhibition, 48 h
Active and inactive are the calls of the source. No stated cut-off is given here; in the data, active = GI50 up to about 1.1 µM and inactive = higher.
Write down the outcome that applies. Available outcomes: active, inactive

Example entries begin here.
compound: Cc1ccccc1-n1c(CCl)nc2ccc(Br)cc2c1=O
class.name: inactive
//
compound: CCN(CC)CCNC(=O)c1cc2cc(NC(=O)c3cc4cc(N)ccc4[nH]3)ccc2[nH]1
class.name: inactive
//
compound: Cc1ccc(NC2=NCCO2)c2c1CCC2
class.name: inactive
//
compound: CC#C[I+]c1ccccc1
class.name: inactive
//
compound: COc1ccc(-c2c(N)n(-c3cc(OC)cc(OC)c3)c(=O)c3cc([N+](=O)[O-])ccc23)cc1
class.name: inactive
//
compound: O=S1(=O)c2cnccc2N=C(NCc2ccccc2)N1c1ccccc1
class.name: inactive

Ask | State the result this test recorded for `Clc1ccc(OCc2nnc(CCCCCCCCc3nnc(COc4ccc(Cl)cc4Cl)n3Nc3ccccc3)n2Nc2ccccc2)c(Cl)c1` .
Reply | inactive

Ask | Same thing, different compound: `O=c1[nH]c(-c2ccc(-c3nc4cc([N+](=O)[O-])ccc4c(=O)[nH]3)cc2)nc2cc([N+](=O)[O-])ccc12`
Reply | inactive

Ask | Field entry: `O=[N+]([O-])c1ccc(-[n+]2ccc3ccccc3c2)c([N+](=O)[O-])c1`
Reply | inactive

Ask | How about COC(CN(C(C)=O)C1CCC2(SCCS2)c2[nH]c3ccccc3c21)OC (stereo unspecified) ?
Reply | inactive

Ask | Repeat with `Cc1cc(S(=O)(=O)Nc2nnc3c4ccccc4cnn23)c(S)cc1Cl`
Reply | inactive

====

Test system: MDA-MB-231
Assay: NCI tumour cell line growth inhibition, 48 h
Activity calls are given as the source filed them. Cut-off read from the data, not from the text of the source: active = GI50 up to about 1.1 µM and inactive = higher.
experimental.readout: GI50

Sample records with GI50:
molecule: CC1=C(C(=O)OC(C)C)C(c2ccccc2C(F)(F)F)C(C(=O)OC(CO[N+](=O)[O-])CO[N+](=O)[O-])=C(C)N1 (stereo not given)
result: 12.3 µM (inactive)
--
molecule: CCN1CCC(O)(c2ccc(Oc3ccccc3)cc2)C(C(=O)c2ccc(Oc3ccccc3)cc2)C1 (stereo not given)
result: 14.6 µM (inactive)
--
molecule: Cc1ccc2c(c1)-c1c(C#N)c(N)nc(-c3ccc(Cl)cc3)c1CCS2(=O)=O
result: 12.3 µM (inactive)
--
molecule: O=C1C(c2cnc3ccccc3n2)=C(O)c2ccccc21
result: > 100 µM (inactive)
--
molecule: N#C[C@@]12CCCC(=O)[C@@H]1[C@H]1CCC[C@H]12
result: 14.6 µM (inactive)

Ask | Name the recorded GI50 for `O=Cc1cn(CCCCCCCCn2cc(C=O)c3ccccc32)c2ccccc12` .
Reply | > 10 µM (inactive)

Ask | Input `Cc1nc(O)c(O)c(CN2CCCCC2)n1`
Reply | > 100 µM (inactive)

Ask | Field entry: Cc1ccc(SC2C(=O)C3CC(OCc4ccccc4)C2(C)C3(C)C)cc1 (stereo not given)
Reply | > 100 µM (inactive)

Ask | Same for `O=C(/C=C/c1ccc(O)cc1)c1cc(O)cc(O)c1`
Reply | 15.5 µM (inactive)

Ask | Record: `CC(=O)Nc1ccc(-c2nc3ccccc3s2)cc1`
Reply | 26.8 µM (inactive)

====

System: LXFL 529
Assay: NCI tumour cell line growth inhibition, 48 h
The source made the active and inactive calls. No stated cut-off is given here; in the data, active = GI50 up to about 1.1 µM and inactive = higher.
experimental.readout: GI50

molecule: CC1=C(C(=O)NCc2ccccc2)C(/C=C/c2ccccc2)C(C(=O)NCc2ccccc2)=C(C)N1
experimental.readout: GI50
result: > 100 µM (inactive)
//
molecule: Cn1cnc([N+](=O)[O-])c1Sc1nc2cccnc2[nH]1
experimental.readout: GI50
result: 39.2 µM (inactive)
//
molecule: CN1C2C=C(c3ccccc3)CC1CC2 (stereo not given)
experimental.readout: GI50
result: > 100 µM (inactive)

Ask | Give its GI50 value. Item: `CC1(C)CC(=O)C/C(=N/c2ccc([N+](=O)[O-])cc2)C1`
Reply | > 100 µM (inactive)

Ask | Now consider `Cc1cc2c(=O)cc(-c3cccs3)oc2c(C(=O)O)c1C` and answer again.
Reply | 49.4 µM (inactive)

Ask | Follow-up item: `Brc1ccc2c(c1)C1(c3cc(Br)ccc3-2)c2cc(Br)ccc2-c2ccc(Br)cc21`
Reply | > 100 µM (inactive)

Ask | Now the molecule CC1=CC(C)(c2c[nH]c3ccccc23)CC(C)(C)c2c1[nH]c1ccccc21 (stereo not given)
Reply | 30.1 µM (inactive)

Ask | Similarly, `CC1(C)CC2CC(CC(C)(C)C2=O)C1=O` ?
Reply | > 100 µM (inactive)

Ask | Same thing, different molecule: COC12OCCN(C)C1=CC(=O)C1(C)N=NCC12 (stereo not given)
Reply | > 100 µM (inactive)

Ask | Follow-up entry: COC(=O)C12Oc3ccc(-c4ccc5c(c4O)C(=O)C4=CCC(C)C(O)C4(C(=O)OC)O5)c(O)c3C(=O)C1=CCC(C)C2O (stereo not given)
Reply | 1.19 µM (inactive)

Values from ChEMBL document CHEMBL1201862
